Origin of measurements: the supplement of paper PMC5908809

A collection of molecules and their measured percent inhibition of viability
system: normal NK cells expanded with K562-aAPC; test: percent inhibition of viability; higher = more inhibition; details: 72 h; IL-2 2.5 ng/mL; 10 nM
valueType: percent inhibition of viability (%)

molecule: Oc1c2ccccc2c2c3c(cccc13)N=N2 (max concentration tested 100000 nM)
systemUnderTest: normal NK cells expanded with K562-aAPC
valueType: percent inhibition of viability
measured: -5.86

molecule: O=C(NOC[C@H](O)CO)c1ccc(F)c(F)c1Nc1ccc(I)cc1F (max concentration tested 1000 nM)
systemUnderTest: normal NK cells expanded with K562-aAPC
valueType: percent inhibition of viability
measured: -6.15

molecule: CCNC(=O)c1noc(-c2cc(C(C)C)c(O)cc2O)c1-c1ccc(CN2CCOCC2)cc1 [Luminespib] (max concentration tested 1000 nM)
systemUnderTest: normal NK cells expanded with K562-aAPC
valueType: percent inhibition of viability
measured: 97.5

molecule: CC(=O)Nc1ccc(C(=O)Nc2ccccc2N)cc1 [Tacedinaline] (max concentration tested 1000 nM)
systemUnderTest: normal NK cells expanded with K562-aAPC
valueType: percent inhibition of viability
measured: -3.33

molecule: Cc1c(NC(=O)OC[C@@H]2COCCN2)cn2ncnc(Nc3ccc4c(cnn4Cc4cccc(F)c4)c3)c12 (max concentration tested 10000 nM)
systemUnderTest: normal NK cells expanded with K562-aAPC
valueType: percent inhibition of viability
measured: 1.61

molecule: CNC(=O)c1ccc(C)c(-n2c(C)cc(OCc3ccc(F)cc3F)c(Br)c2=O)c1 (max concentration tested 1000 nM)
systemUnderTest: normal NK cells expanded with K562-aAPC
valueType: percent inhibition of viability
measured: -9.81

====

tested on: SNK-6 (IL-2 2.5 ng/mL); test: percent inhibition of viability; higher = more inhibition; settings: 72 h; 100 nM;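 further: normalised to DMSO-only wells as negative and benzethonium chloride as positive control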
valueType: percent inhibition of viability (%)

compound: COc1ccc(S(=O)(=O)Nc2cccnc2Nc2ccc(O)cc2)cc1 [ABT-751] (max concentration tested 10000 nM)
endpointUnit: %
measured: 50.7
//
compound: Cc1nc(C(=O)NCC(=O)O)c(O)c2ccc(Oc3ccccc3)cc12 [FG-4592] (max concentration tested 10000 nM)
endpointUnit: %
measured: 5.11
//
compound: Nc1ccn([C@@H]2O[C@H](CO)[C@@H](O)C2(F)F)c(=O)n1 [Gemcitabine] (max concentration tested 1000 nM)
endpointUnit: %
measured: 94.6
//
compound: C[C@@H](Oc1ccc2[nH]nc(/C=C/c3cnn(CCO)c3)c2c1)c1c(Cl)cncc1Cl (max concentration tested 1000 nM)
endpointUnit: %
measured: 95
//
compound: CC(C)N(CCCNC(=O)Nc1ccc(C(C)(C)C)cc1)C[C@H]1O[C@@H](n2cc(Br)c3c(N)ncnc32)[C@H](O)[C@@H]1O [SGC0946] (max concentration tested 10000 nM)
endpointUnit: %
measured: 0.17
//
compound: Cc1cc(Nc2cc(N3CCN(C)CC3)nc(/C=C/c3ccccc3)n2)n[nH]1 [ENMD-2076] (max concentration tested 10000 nM)
endpointUnit: %
measured: -27.8
//
compound: CN(C)Cc1ccc(S(=O)(=O)n2ccc(/C=C/C(=O)NO)c2)cc1 [Resminostat] (max concentration tested 10000 nM)
endpointUnit: %
measured: 5.35
//
compound: CC(C)C(=O)Nc1ccc([N+](=O)[O-])c(C(F)(F)F)c1 [Flutamide] (max concentration tested 10000 nM)
endpointUnit: %
measured: -5.11
//
compound: CCNC(=O)c1noc(-c2cc(C(C)C)c(O)cc2O)c1-c1ccc(CN2CCOCC2)cc1 [Luminespib] (max concentration tested 1000 nM)
endpointUnit: %
measured: 85.2
//
compound: Cc1nc(N)sc1-c1ccnc(Nc2ccc(N3CCOCC3)cc2)n1 [CYC-116] (max concentration tested 10000 nM)
endpointUnit: %
measured: 15.3
//
compound: CC(C)CC(=O)Nc1n[nH]c2c1CN(C(=O)C1CCN(C)CC1)C2(C)C (max concentration tested 10000 nM)
endpointUnit: %
measured: 17.6
//
compound: COc1cc2c(Oc3ccc(NC(=O)C4(C(=O)Nc5ccc(F)cc5)CC4)cc3F)ccnc2cc1OCCCN1CCOCC1 [Foretinib] (max concentration tested 1000 nM)
endpointUnit: %
measured: -4.86
//
compound: COc1cc(Nc2c(C#N)cnc3cc(OCCCN4CCN(C)CC4)c(OC)cc23)c(Cl)cc1Cl [Bosutinib] (max concentration tested 10000 nM)
endpointUnit: %
measured: -18.2
//
compound: CN1CCN(CCOc2cc(OC3CCOCC3)c3c(Nc4c(Cl)ccc5c4OCO5)ncnc3c2)CC1 [Saracatinib] (max concentration tested 10000 nM)
endpointUnit: %
measured: -18
//
compound: O=C(c1cc(Cc2n[nH]c(=O)c3ccccc23)ccc1F)N1CCN(C(=O)C2CC2)CC1 [Olaparib] (max concentration tested 10000 nM)
endpointUnit: %
measured: -10.2
//
compound: Cn1cc(CNCC2CCN(c3ncc(C(=O)NO)cn3)CC2)c2ccccc21 [Quisinostat] (max concentration tested 1000 nM)
endpointUnit: %
measured: 56.4
//
compound: Cc1cc(OCc2nnc(SC3CCCC3)n2-c2cccnc2)ccc1-c1ccc(S(C)(=O)=O)cc1 [NMS-873] (max concentration tested 10000 nM)
endpointUnit: %
measured: 15.3
//
compound: CNC(=O)c1nn(C)c2c1C(C)(C)Cc1cnc(Nc3ccc(N4CCN(C)CC4)cc3)nc1-2 [Milciclib] (max concentration tested 10000 nM)
endpointUnit: %
measured: -12.8
//
compound: CCC1=C[C@@H]2CN(C1)Cc1c([nH]c3ccccc13)[C@@](C(=O)OC)(c1cc3c(cc1OC)N(C)[C@H]1[C@@](O)(C(=O)OC)[C@H](OC(C)=O)[C@]4(CC)C=CCN5CC[C@]31[C@@H]54)C2 [Vinorelbine] (max concentration tested 10000 nM)
endpointUnit: %
measured: 84.4
//
compound: CC[C@H](CO)Nc1nc(NCc2ccccc2)c2ncn(C(C)C)c2n1 [Seliciclib] (max concentration tested 10000 nM)
endpointUnit: %
measured: -3.42
//
compound: Cc1nc(Nc2ncc(C(=O)Nc3c(C)cccc3Cl)s2)cc(N2CCN(CCO)CC2)n1 [Dasatinib] (max concentration tested 1000 nM)
endpointUnit: %
measured: 3.42
//
compound: C1=N/C2=N/c3ccc(OCCN4CCCC4)c(c3)COC/C=C/COCc3cccc(c3)C(=C1)N2 [Pacritinib] (max concentration tested 10000 nM)
endpointUnit: %
measured: -10.4
//
compound: Clc1ccccc1C(c1ccccc1)(c1ccccc1)n1cccn1 [TRAM-34] (max concentration tested 1000 nM)
endpointUnit: %
measured: 24
//
compound: O[C@H]1CC[C@H](Nc2ncc3nc(Nc4c(F)cc(F)cc4F)n([C@H]4CCOC4)c3n2)CC1 [Tanzisertib] (max concentration tested 10000 nM)
endpointUnit: %
measured: -1.51
//
compound: CN(C[C@@H]1COCCO1)S(=O)(=O)Nc1ccc2ccc3ncc(-c4cnn(C)c4)cc3c(=O)c2c1 [MK-2461] (max concentration tested 10000 nM)
endpointUnit: %
measured: -3.05
